Listing: inhibition at 10 µM of selected molecules
# Measurement target: 5-HT3 receptor (Cavia porcellus)
# Construct: From ileum of Hartley male guinea pigs (500 g to 800 g) longitudinal muscle samples of about 20 mm were prepared; from tissue; host or cells: guinea pig ileum longitudinal muscle
# Sequence (O70212 20-490): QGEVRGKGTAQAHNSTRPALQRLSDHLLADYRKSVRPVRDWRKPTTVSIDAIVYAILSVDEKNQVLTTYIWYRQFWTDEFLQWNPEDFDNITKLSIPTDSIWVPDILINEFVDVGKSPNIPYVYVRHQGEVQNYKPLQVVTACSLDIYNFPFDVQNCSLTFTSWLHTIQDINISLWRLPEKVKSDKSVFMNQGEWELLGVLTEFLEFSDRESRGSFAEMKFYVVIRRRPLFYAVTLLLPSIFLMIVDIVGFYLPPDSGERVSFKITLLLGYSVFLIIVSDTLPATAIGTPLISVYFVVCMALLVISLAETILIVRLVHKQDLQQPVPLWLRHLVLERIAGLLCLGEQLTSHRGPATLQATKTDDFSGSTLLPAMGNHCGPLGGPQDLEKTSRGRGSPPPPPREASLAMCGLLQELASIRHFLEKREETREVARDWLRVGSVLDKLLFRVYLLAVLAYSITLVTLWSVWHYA
# Assay info: Test for 5-HT3 receptor activating action and antagonism, guinea pig ileum longitudinal muscle contraction
# Type: cell-based
# Particulars: inhibitory ratio of contraction by 10 μM 5-HT in sample treated beforehand with 10 μM compound; guinea pig ileum longitudinal muscle

| Molecule | Measurement target | inhibition at 10 µM |
| --- | --- | --- |
| CC(=O)Nc1cc(Cl)cc2nc(N3CCCNCC3)oc12 | 5-HT3 receptor (Cavia porcellus) | 90% |
| Cc1cc2oc(N3CCCNCC3)nc2cc1Cl | 5-HT3 receptor (Cavia porcellus) | 88% |
| Cc1cc(C)c2oc(N3CCNCC3)nc2c1 [C, reference compound] | 5-HT3 receptor (Cavia porcellus) | 91% |

Qu. Requested read-out: inhibition at 10 µM. Entry: Cc1cc(Cl)cc2nc(N3CCN(C)CC3)oc12 [D, reference compound]
Ans. 94%

Qu. Also, Cc1cc(Cl)cc2nc(N3CCNCC3)oc12 [F, reference compound] please.
Ans. 90%

Qu. Also, Cc1c(Cl)cc2nc(N3CCCNCC3)oc2c1C please.
Ans. 89%

Qu. Also, Cc1c(Cl)cc2nc(N3CCCNCC3)oc2c1Cl please.
Ans. 96%

Qu. Also, CC(C)(C)OC(=O)Nc1cc(Cl)cc2nc(N3CCCNCC3)oc12 please.
Ans. 83%

Qu. Also, CS(=O)(=O)Nc1cc(Cl)cc2nc(N3CCCNCC3)oc12.Cl [Example 14, hydrochloride] please.
Ans. 46%

Qu. Also, CCc1cc(Cl)cc2nc(N3CCCNCC3)oc12 please.
Ans. 89%

Qu. Also, Cl.Nc1cc(Cl)cc2nc(N3CCCNCC3)oc12 [Example 8, hydrochloride] please.
Ans. 83%

Qu. Also, Cc1cc(Cl)cc2nc(N3CCCN(C)CC3)oc12 [E, reference compound] please.
Ans. 98%

Qu. Also, CC(C)C(=O)Nc1cc(Cl)cc2nc(N3CCCNCC3)oc12.Cl [Example 16, hydrochloride] please.
Ans. 15%
